This collection of values is drawn from paper PMC5995301.

Experiment: Parallel artificial membrane permeability assay
Format: in vitro ADME
Settings: PAMPA, pH 6.8
VALUE KIND: Papp at 5 h, 200 μg/mL (×10⁻⁶ cm/s)
Give just the number in ×10⁻⁶ cm/s; leave the unit off.

# input Please look up its Papp at 5 h, 200 μg/mL: Nc1nc2[nH]cc(CCc3ccc(C(=O)N[C@@H](CCC(=O)O)C(=O)O)cc3)c2c(=O)[nH]1
# output 0.665

====

Assay: In vitro permeability across a Caco-2 cell monolayer
Assay type: in vitro ADME
Conditions: human
VALUE KIND: Papp at 5 h, 100 μg/mL
Provide a numeric answer, followed by its unit.

# input Please look up its Papp at 5 h, 100 μg/mL: Nc1nc2[nH]cc(CCc3ccc(C(=O)N[C@@H](CCC(=O)O)C(=O)O)cc3)c2c(=O)[nH]1
# output 0.498 ×10⁻⁶ cm/s
